B1: C8orf76 (parent)
chain: KLAEAYLNLGPALSAALASSQKQH

- Variants of: B1
- assay_notes: protein stability index of a GFP-peptide fusion (GPS, HEK-293T) (PSI 1-6); higher = more stable;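 note: lentivirally expressed fusions sorted by FACS into six bins by GFP to DsRed ratio, PSI derived from sequencing read proportions per bin multiplied by bin number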
- assay_setup: c terminus: a fixed tail appended
Listed below: protein stability index values for each entry.

# residue_string, endpoint_result
data = [
    ("KLAEAYLNLGPALSAVLASSQKQH [A16V]", 2.05),
    ("KLASAYLNLGPALSAALASSQKQH [E4S]", 1.31),
    ("KLAEAYLNLGPALSAALAYSQKQH [S19Y]", 2.84),
    ("KLYEAYLNLGPALSAALASSQKQH [A3Y]", 3.71),
    ("KLATAYLNLGPALSAALASSQKQH [E4T]", 3.2),
    ("KLAAAYLNLGPALSAALASSQKQH [E4A]", 1.83),
    ("KLAEAYLNLGPALSAAVASSQKQH [L17V]", 1.59),
    ("KLAEWYLNLGPALSAALASSQKQH [A5W]", 1.58),
    ("KLAEAYLNLGPALSAELASSQKQH [A16E]", 1.82),
    ("KLAEAYLNLGPALSAALASSQKQS [H24S]", 2.83),
]

Query protein stability index for KLAEGYLNLGPALSAALASSQKQH [A5G]
2.03

Look up and state reported protein stability index for KLAEAYLNLGPALSAALASSQKQD [H24D]
1.67

Return value of protein stability index for input KLAEAYLNLGPALSAALASSQYQH [K22Y] , no commentary.
3.64

Tell us which protein stability index value is on record for KLAEAYLNLGPKLSAALASSQKQH [A12K]
2.32

Answer with the recorded protein stability index for the variant listed here: KLAEAYLNLGPALSAALASSQPQH [K22P]
4.17

Determine from records and report protein stability index for KLAEAYLNLGPALMAALASSQKQH [S14M]
3.24

Write down protein stability index measured for item KLAEAYLNLDPALSAALASSQKQH [G10D]
1.88

// Input: KLAEAVLNLGPALSAALASSQKQH [Y6V] . Output its protein stability index only.
3.81

Identify the reported protein stability index for the following entry. KLAEAYLNLGPALSKALASSQKQH [A15K]
2.27

Given KLAEAYLNLGPALSAAAASSQKQH [L17A] , respond with its protein stability index.
1.65

Specify reported protein stability index for the variant shown: KLGEAYLNLGPALSAALASSQKQH [A3G]
2.22

Answer with the recorded protein stability index of KLAEAYLNLGPALSAALLSSQKQH [A18L] only.
3.18
